Values from paper PMC10526447

System: Pseudotyped SARS-CoV-2 BA.4.6
measurement_conditions: Pseudotyped BA.4.6, 48 h
Positions of bridges follow the written chain, without caps; N, C: chain ends. No end group written: not given here.
reported_metric: IC50 (nM)
I only need the number, in nM, no unit after it.

For DCAWHLGELVWCTSLDQINVTFLDLEYEMKKLEEAIKKLEESYIDLKEL (disulfide 2-12) [IBP-EK1] , write its IC50.
195
